Recorded IC50 by entry
# ASSAYED TARGET: Multidrug resistance-associated protein 1 (Homo sapiens, UniProt P33527)
# Sequence (P33527 whole entry): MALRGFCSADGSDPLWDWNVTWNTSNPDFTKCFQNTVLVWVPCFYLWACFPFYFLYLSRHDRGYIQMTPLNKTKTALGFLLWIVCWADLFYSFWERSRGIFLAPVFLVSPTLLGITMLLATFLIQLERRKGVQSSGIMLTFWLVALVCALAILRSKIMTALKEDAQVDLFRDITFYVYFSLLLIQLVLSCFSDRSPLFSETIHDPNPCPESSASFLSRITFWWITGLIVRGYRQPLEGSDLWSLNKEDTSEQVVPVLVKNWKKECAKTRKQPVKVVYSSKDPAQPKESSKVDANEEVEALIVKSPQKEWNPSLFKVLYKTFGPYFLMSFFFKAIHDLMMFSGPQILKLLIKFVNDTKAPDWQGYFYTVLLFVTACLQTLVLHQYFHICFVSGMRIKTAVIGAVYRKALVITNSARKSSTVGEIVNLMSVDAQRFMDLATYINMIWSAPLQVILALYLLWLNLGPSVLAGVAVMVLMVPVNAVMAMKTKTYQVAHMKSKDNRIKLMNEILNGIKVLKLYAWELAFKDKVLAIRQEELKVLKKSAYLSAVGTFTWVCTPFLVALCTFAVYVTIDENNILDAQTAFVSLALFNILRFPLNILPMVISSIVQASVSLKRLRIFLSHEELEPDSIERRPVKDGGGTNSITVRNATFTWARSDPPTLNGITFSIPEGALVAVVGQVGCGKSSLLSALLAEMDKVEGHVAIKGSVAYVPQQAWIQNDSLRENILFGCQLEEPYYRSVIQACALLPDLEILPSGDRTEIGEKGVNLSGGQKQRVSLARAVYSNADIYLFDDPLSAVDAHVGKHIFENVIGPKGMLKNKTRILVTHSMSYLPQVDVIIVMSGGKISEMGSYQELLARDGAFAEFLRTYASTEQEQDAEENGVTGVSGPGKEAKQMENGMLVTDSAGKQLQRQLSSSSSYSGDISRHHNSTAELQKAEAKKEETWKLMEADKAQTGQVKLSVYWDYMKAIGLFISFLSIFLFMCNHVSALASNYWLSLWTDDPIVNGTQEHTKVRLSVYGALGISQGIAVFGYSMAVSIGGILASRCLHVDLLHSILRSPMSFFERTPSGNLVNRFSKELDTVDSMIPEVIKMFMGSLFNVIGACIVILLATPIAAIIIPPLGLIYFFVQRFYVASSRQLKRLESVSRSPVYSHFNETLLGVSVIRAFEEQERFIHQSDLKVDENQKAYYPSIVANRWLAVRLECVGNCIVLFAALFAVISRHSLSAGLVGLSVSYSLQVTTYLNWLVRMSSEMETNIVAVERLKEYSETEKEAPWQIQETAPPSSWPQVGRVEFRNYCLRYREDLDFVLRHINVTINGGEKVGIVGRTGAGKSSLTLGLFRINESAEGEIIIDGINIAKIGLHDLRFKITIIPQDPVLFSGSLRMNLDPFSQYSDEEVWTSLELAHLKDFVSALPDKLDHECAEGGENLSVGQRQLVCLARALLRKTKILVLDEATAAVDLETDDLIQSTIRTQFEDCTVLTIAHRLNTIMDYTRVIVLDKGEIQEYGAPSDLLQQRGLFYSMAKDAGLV
# EXPERIMENT SUMMARY: Inhibition of human ABCC1 transfected in MDCK2-MRP1 cells using calcein-AM as substrate measured after 1 hr by fluorescence assay
# Assay type: cell-based

Guide cases for IC50, answers given:
{"SMILES": "COc1ccc2[nH]cc(CCNC(=O)c3cc(=O)c4c(OCc5ccc(Br)cc5)cccc4o3)c2c1", "IC50": "3.6 µM"}
{"SMILES": "COc1cc2c(cc1OC)CN(CCc1ccc(-n3cc(-c4ccc(C(=O)C(C)C)c(NC(=O)c5ccc6ccccc6n5)c4)nn3)cc1)CC2", "IC50": "≥ 19 µM"}

Req: Dear colleague, please send me the reported IC50 for COc1ccc(/C(C#N)=C/c2ccc(N3CCC(O)CC3)s2)cc1OC when you can.
Resp: ≥ 39.8 µM
